- Test system: DMS 114 small cell lung
- test: NCI tumour cell line growth inhibition, 48 h

[
  {
    "compound": "CC(=O)OCC1OC(Sc2ccccn2)C=CC1OC(C)=O (stereo unspecified)",
    "TGI": "> 100 µM"
  },
  {
    "compound": "Cc1cc(NCCCCCCNc2cc(C)nc3ccc(Cl)cc23)c2cc(Cl)ccc2n1",
    "TGI": "36 µM"
  },
  {
    "compound": "CCOC(=O)/C=C/c1ccccn1",
    "TGI": "> 100 µM"
  },
  {
    "compound": "BrC12c3ccccc3Sc3ccccc3C1(Br)c1ccccc12 (stereo unspecified)",
    "TGI": "64.8 µM"
  },
  {
    "compound": "O=C(O)C1OC(Oc2cc(O)c3c(=O)cc(-c4ccc(O)cc4)oc3c2)C(O)C(O)C1O (stereo unspecified)",
    "TGI": "> 100 µM"
  },
  {
    "compound": "CC1=C2C(O)C(C(C)C(=O)NC(C)C)CCC2(C)C=CC1=O (stereo unspecified)",
    "TGI": "> 100 µM"
  },
  {
    "compound": "CCC(/C(=N\\Nc1c(Cl)cc(Cl)cc1Cl)c1ccccc1)n1ccnc1C (stereo unspecified)",
    "TGI": "22.3 µM"
  },
  {
    "compound": "Cc1cc(-c2ccccc2)cc2[n+]1CC=C2",
    "TGI": "> 100 µM"
  },
  {
    "compound": "CC(=O)NC(CCCCNC(=O)N(C)N=O)C(=O)NCc1ccccc1 (stereo unspecified)",
    "TGI": "> 100 µM"
  },
  {
    "compound": "Nc1ccc(N)c2c1C(=O)c1c(N)ccc(N)c1C2=O",
    "TGI": "> 100 µM"
  },
  {
    "compound": "COC(=O)NN1C(=O)C(=P(c2ccccc2)(c2ccccc2)c2ccccc2)C(C(=O)OC)=C1C",
    "TGI": "> 100 µM"
  }
]

====

Catalogue of compounds with associated TGI
- System: SN12C renal
- test: NCI tumour cell line growth inhibition, 48 h

[
  {
    "compound": "COc1ccc(-c2coc3cc(OC)cc(O)c3c2=O)cc1",
    "TGI": "> 100 µM"
  },
  {
    "compound": "O=C(c1ccc2c3c(ccc(C(=O)C(F)(F)F)c13)CC2)C(F)(F)F",
    "TGI": "> 100 µM"
  },
  {
    "compound": "CC1(C)OC(=S)N(c2ccccc2)C12C=Cc1cc3ccccc3cc1O2 (stereo unspecified)",
    "TGI": "> 100 µM"
  },
  {
    "compound": "Cc1ccc(NC(=O)c2nc(S(C)=O)oc2-c2ccc(F)cc2)cc1Nc1nccc(-c2cccnc2)n1 (stereo unspecified)",
    "TGI": "3.73 µM"
  },
  {
    "compound": "COc1cc(C=O)c(-c2cc3c(cc2C=O)OCO3)c(OC)c1OC",
    "TGI": "260 µM"
  },
  {
    "compound": "Cn1cnc([N+](=O)[O-])c1Sc1nc(N)nc2c1ncn2Cc1ccccc1",
    "TGI": "37.3 µM"
  },
  {
    "compound": "O=CC1(C2(C=O)c3ccccc3-c3ccccc32)c2ccccc2-c2ccccc21",
    "TGI": "5.83 µM"
  },
  {
    "compound": "COc1ccc(/C=C/C(=O)c2ccc(Nc3ccnc4cc(Cl)ccc34)cc2)cc1",
    "TGI": "> 100 µM"
  },
  {
    "compound": "COc1cc2c(cc1OC)C(Cc1c3ccccc3cc3ccccc13)N(C)CC2 (stereo unspecified)",
    "TGI": "> 100 µM"
  },
  {
    "compound": "CC(=O)c1ccc(NCN2C(=O)c3ccccc3C2=O)cc1",
    "TGI": "> 100 µM"
  },
  {
    "compound": "COc1cc(C2C(C#N)=C(N)Oc3cc(O)ccc32)cc(OC)c1OC (stereo unspecified)",
    "TGI": "> 100 µM"
  },
  {
    "compound": "COC(=O)c1ccc(C2SCC(=O)N2NC(=O)C(O)c2ccccc2)cc1 (stereo unspecified)",
    "TGI": "> 100 µM"
  },
  {
    "compound": "Cc1cc(-c2ccccc2)cc2[n+]1CC=C2",
    "TGI": "> 100 µM"
  },
  {
    "compound": "Cc1ccccc1/C=C1\\CN(C(=O)OC(C)(C)C)C/C(=C\\c2ccccc2C)C1=O",
    "TGI": "6.43 µM"
  },
  {
    "compound": "O=C(CCl)Nc1ccc2c(c1)C(=O)c1ccc(NC(=O)CCl)cc1C2=O",
    "TGI": "1.76 µM"
  },
  {
    "compound": "COC(=O)C1C2CCCN2OC1(C)CO (stereo unspecified)",
    "TGI": "> 100 µM"
  },
  {
    "compound": "COC(=O)C(Cc1nc2ccccc2[nH]c1=O)C(=O)C(=O)Nc1ccc(OC)cc1[N+](=O)[O-] (stereo unspecified)",
    "TGI": "> 100 µM"
  },
  {
    "compound": "CC(=O)OCC1OC(n2c(-c3ccccc3)c(C)c(C)c(C#N)c2=S)C(OC(C)=O)C(OC(C)=O)C1OC(C)=O (stereo unspecified)",
    "TGI": "> 100 µM"
  },
  {
    "compound": "CN(C)/C(N)=N/C(N)=S",
    "TGI": "> 100 µM"
  },
  {
    "compound": "CC[C@]12C=CCN3CCC4(c5cc([C@@]6(C(=O)OC)CC7CN(CCc8c6[nH]c6ccccc86)C[C@@H]6CCC[C@H]76)c(OC)cc5N(C)C4[C@](O)(C(=O)OC)C1OC(C)=O)C32 (stereo partly specified)",
    "TGI": "> 10 µM"
  },
  {
    "compound": "O=C(O)/C=C\\C(=O)Nc1ccc2c(c1)C(=O)c1cc(F)ccc1-2",
    "TGI": "> 100 µM"
  }
]

====

Catalogue of molecules with associated TGI
- Tested on: OVCAR-5 ovarian
- test: NCI tumour cell line growth inhibition, 48 h
assay.endpoint: TGI

[
  {
    "molecule": "Cc1cc(NCCCCCCNc2cc(C)nc3ccc(Cl)cc23)c2cc(Cl)ccc2n1",
    "target.or.test.system": "OVCAR-5 ovarian",
    "test.result": "34.7 µM"
  },
  {
    "molecule": "Cc1nc2cc(N)c(Cl)cc2[nH]1",
    "target.or.test.system": "OVCAR-5 ovarian",
    "test.result": "> 100 µM"
  },
  {
    "molecule": "CC(=O)Nc1ccc(-c2nc3ccccc3s2)cc1O",
    "target.or.test.system": "OVCAR-5 ovarian",
    "test.result": "93.8 µM"
  },
  {
    "molecule": "CP(C)(=S)P(C)(C)=S",
    "target.or.test.system": "OVCAR-5 ovarian",
    "test.result": "> 100 µM"
  },
  {
    "molecule": "Cc1nn(-c2ccc(Br)cc2)c(C)c1CC(=O)c1cc(O)ccc1O",
    "target.or.test.system": "OVCAR-5 ovarian",
    "test.result": "> 50 µM"
  },
  {
    "molecule": "C[C@@]1(N2C(=O)OC[C@@H]2c2ccccc2)C(=O)N([C@H](CC(=O)N2CCC(N3CCCCC3)CC2)C(=O)NCc2cccc(C(F)(F)F)c2)[C@@H]1/C=C/c1ccccc1",
    "target.or.test.system": "OVCAR-5 ovarian",
    "test.result": "9.4 µM"
  },
  {
    "molecule": "CCn1cnc2c(NC(C)=O)ncnc21",
    "target.or.test.system": "OVCAR-5 ovarian",
    "test.result": "> 100 µM"
  },
  {
    "molecule": "CCC/C(=N\\NC(=O)c1cc2ccccc2cc1O)C(CC)C(=O)CCC(=O)N(Cc1ccccc1)Cc1ccccc1 (stereo not given)",
    "target.or.test.system": "OVCAR-5 ovarian",
    "test.result": "> 100 µM"
  },
  {
    "molecule": "CC[C@@]1(O)C(=O)OCc2c1cc1n(c2=O)Cc2c-1nc1ccccc1c2/C=N/OC(C)(C)C",
    "target.or.test.system": "OVCAR-5 ovarian",
    "test.result": "5.47 µM"
  },
  {
    "molecule": "Cc1nn(C)c2c1C(=O)N(C)CC(=O)N2C",
    "target.or.test.system": "OVCAR-5 ovarian",
    "test.result": "> 100 µM"
  }
]

====

Catalogue of compounds with associated GI50
- Tested on: A498 renal
- test: NCI tumour cell line growth inhibition, 48 h
*1 amine or outer side, *2 acyl side, *3 side chain or, on linkers, in order; H or OH if unused. Where a SMILES comes first, the peptide text is derived from it. Bridges are numbered along the chain shown (N, C = ends). [ ]: non-standard residue; d: D form. The star is where a group is joined. Phe(3-Me) = Cc1cccc(C[C@H](N)C(=O)O)c1; NH(4-Cl-2-F-phenyl) = Fc1cc(Cl)ccc1N*; Pro(4R-Me) = C[C@H]1CN[C@H](C(=O)O)C1; Propanoyl(3-NMe2) = CN(C)CCC(=O)*; Hyp = O=C(O)[C@@H]1C[C@@H](O)CN1; aThr = C[C@H](O)[C@H](N)C(=O)O; Pip = O=C(O)[C@@H]1CCCCN1; CO = O=C([*:1])[*:2]
assay.endpoint: GI50

[
  {
    "compound": "Cc1cccc(C[C@H](NC(=O)Nc2ccc(Cl)cc2F)C(=O)N[C@@H]2C(=O)N3C[C@H](OC(=O)CCN(C)C)C[C@H]3C(=O)N3CCCC[C@H]3C(=O)N[C@@H](C)C(=O)N3C[C@H](C)C[C@H]3C(=O)O[C@H]2C)c1 ({NH(4-Cl-2-F-phenyl)-CO}-[Phe(3-Me)][aThr][Hyp](Propanoyl(3-NMe2))[Pip]A[Pro(4R-Me)]; ester 2-C)",
    "assay.endpoint": "GI50",
    "test.result": "430 nM"
  },
  {
    "compound": "C=C(CN1CCN(c2cccc(F)c2)CC1)c1ccc(C(=O)Nc2ccccc2N)cc1",
    "assay.endpoint": "GI50",
    "test.result": "2120 nM"
  },
  {
    "compound": "COc1cc(NC(N)=NCCC(C)(C)c2ccc(C(F)(F)F)cc2)ncc1C#N",
    "assay.endpoint": "GI50",
    "test.result": "1880 nM"
  },
  {
    "compound": "COc1cc(-c2cc(CCC(=O)Nc3ccccc3[N+](=O)[O-])n(-c3ccc([N+](=O)[O-])cc3[N+](=O)[O-])n2)ccc1O",
    "assay.endpoint": "GI50",
    "test.result": "> 100000 nM"
  },
  {
    "compound": "COc1cc2c3c(n(CCCCl)c(=O)c2cc1OC)-c1ccc(C#N)cc1C3=O",
    "assay.endpoint": "GI50",
    "test.result": "16100 nM"
  },
  {
    "compound": "Cc1nn(-c2ccc(Br)cc2)c(C)c1CC(=O)c1cc(O)ccc1O",
    "assay.endpoint": "GI50",
    "test.result": "7180 nM"
  },
  {
    "compound": "CC(C)[C@@H]1CC[C@@H]2[C@@H]1[C@H](OC(=O)/C=C/c1ccccc1)[C@]1(C(C)C)C[C@@H](OC(=O)CO)[C@@]2(C)O1",
    "assay.endpoint": "GI50",
    "test.result": "8.06 nM"
  },
  {
    "compound": "CC(C)Oc1ccc(C(=O)N[C@H](CNC(=O)CN(C)C)Cc2ccc(-c3cn4cccc([C@H](C)O)c4n3)cc2)cc1Cl",
    "assay.endpoint": "GI50",
    "test.result": "213 nM"
  },
  {
    "compound": "CCN1CCN(C(=O)[C@]23CCC(C)(C)C[C@@H]2C2=CC[C@@H]4[C@@]5(C)C/C(=C/c6cccnc6)C(=O)C(C)(C)[C@@H]5CC[C@@]4(C)[C@]2(C)CC3)CC1",
    "assay.endpoint": "GI50",
    "test.result": "1660 nM"
  },
  {
    "compound": "N=c1ccn2c(n1)O[C@@H]1[C@@H](O)[C@H](CO)O[C@@H]12",
    "assay.endpoint": "GI50",
    "test.result": "> 100000 nM"
  },
  {
    "compound": "O=C(CCl)Nc1ccc2c(c1)C(=O)c1ccc(NC(=O)CCl)cc1C2=O",
    "assay.endpoint": "GI50",
    "test.result": "3490 nM"
  },
  {
    "compound": "COc1cc(OC)cc(-c2cncn2-c2ccc(-c3nc4cc(OC)c(OC)c(OC)c4s3)cc2)c1",
    "assay.endpoint": "GI50",
    "test.result": "> 100000 nM"
  },
  {
    "compound": "COc1cc([C@@H]2c3cc4c(c(O)c3C[C@H]3COC(=O)[C@@H]32)OCO4)cc(OC)c1O",
    "assay.endpoint": "GI50",
    "test.result": "1.44 nM"
  },
  {
    "compound": "COc1cc2c3c(c4c5ccccc5[nH]c4c2c(OC)c1OC)C(=O)N(CCN1CCCCC1)C3=O",
    "assay.endpoint": "GI50",
    "test.result": "1350 nM"
  },
  {
    "compound": "O=S(=O)(NCCCNc1cc(-c2cn(-c3ccccc3)nc2-c2cccc(O)c2)ccn1)c1ccc(Cl)cc1",
    "assay.endpoint": "GI50",
    "test.result": "329 nM"
  }
]
